- System: HepG2
- measurement-description: GSK_TCMDC: Percent inhibition of human HepG2 cell line. Test compounds present at 10uM.
- Format: functional
assay-endpoint: Inhibition (%)
Could you give me the number in %? Just the number is fine.

Below, each entry is followed by its recorded Inhibition result.
# compound, measurement-unit, number
measured = [
    ("O=C(/C=C/c1ccc(Cl)c(Cl)c1)N1CCC(CCN2CCC(c3nc4cc(O)ccc4[nH]3)CC2)CC1", "%", 42),
    ("CCOC(=O)C(=O)N1c2ccc(OCC)cc2-c2c(ssc2=S)C1(C)C", "%", 5),
]

(Q) Query (compound): `CC(C)(Oc1c(C2CCN(CCCCNC(=O)c3ccc(-c4ccc(Cl)cc4)cc3)CC2)ccc2c1CCCC2)C(N)=O` ; field requested: Inhibition
(A) 100

(Q) Can you look up the measured Inhibition of `Cc1cnc(NCCc2ccc(F)cc2)nc1NCCC(=O)Nc1ccccc1.O=C(O)C(F)(F)F` for me?
(A) 3

(Q) # lookup: Inhibition of `Cc1ccc(Nc2nnc(SCC(=O)Nc3ccc(CN4CCCC4)cc3)s2)cc1`
(A) 4

(Q) Could you share which Inhibition value was measured for `CC(C)CNC(=O)c1cncc(-c2ccc(CNC3Cc4ccccc4C3)cc2)c1.O=C(O)C(F)(F)F` ?
(A) 5

(Q) Record request: Inhibition value, item `CNCCNCc1cccc(-c2ccc(-c3nc4cc(C(F)(F)F)ccc4[nH]3)s2)c1.O=C(O)C(F)(F)F`
(A) 31

(Q) Tell me the measured Inhibition of `CC(C)c1cccc(OCC2CCN(c3ccc(C(=O)Nc4ccccc4)cn3)CC2)c1` , please.
(A) 9

(Q) Given `NS(=O)(=O)c1cccc(Nc2nccc(-c3cnn4ncccc34)n2)c1` , state its recorded Inhibition.
(A) 39

###

- Test system: HepG2
- measurement-description: GSK_TCMDC: Percent inhibition of human HepG2 cell line. Test compounds present at 10uM.
- Format: functional
Listed next: entries and their corresponding Inhibition.
# unit: % | format: bare number

Solved entries:
# molecule, tested-system, Inhibition (%)
measured = [
    ("CCOc1cc2ccccc2cc1CNCCCCCCNCc1cc2ccccc2cc1OCC.CS(=O)(=O)O", "HepG2", 99),
    ("O=C(c1ccc(O)c(-c2cc(Cl)cc(Cl)c2)c1)N(CCO)CCO", "HepG2", 1),
    ("Cc1[nH]c(C)c(-c2ccc(Oc3ccc(O)cc3)cc2)c(=O)c1Cl", "HepG2", 0),
    ("COc1cc2nc(N3CCC(CNC(=O)c4ccc(-c5ccc(C(=O)N(C)C)cc5OCCN(C)C)cc4)CC3)nc(N)c2cc1OC", "HepG2", 0),
]

(Q) I have this molecule here, `Cl.O=c1cc(NCCCNCc2sc(Br)c(Br)c2Br)[nH]c2ccccc12` , and I need its recorded Inhibition.
(A) 0

(Q) Item Cc1nc(-c2cccc(Nc3nccc(NCC(O)c4cccc(C(F)(F)F)c4)n3)c2)cs1 (configuration not stated) has what recorded Inhibition?
(A) 14

(Q) # lookup: Inhibition of `Cc1nc2c(c([O-])c1Cl)-c1ccc(Oc3cccc(C(F)(F)F)c3)cc1C2=O.[Na+]`
(A) 25

###

# Inhibition per entry
- System: Plasmodium falciparum
- measurement-description: GSK_TCMDC: Inhibition of Plasmodium falciparum 3D7 in whole red blood cells, using parasite LDH activity as an index of growth. Test compounds present at 2uM
- Format: functional
Form entry: value (%) — number only.

# chem-smiles, assay-endpoint, measurement-unit, number
measured = [
    ("Cc1nc(-c2ccc(C(F)(F)F)cn2)sc1C(=O)N1CCc2cc3nccc(N4CCN5CCC[C@H]5C4)c3cc21.Cl", "Inhibition", "%", 100),
    ("COCCN1CCC(C(=O)NCC(C)(C)c2nc(-c3ccc(Br)c(O)c3)c(-c3ccncc3)[nH]2)CC1.Cl", "Inhibition", "%", 99),
    ("Cc1ccc2c(OCCN3CCC(Cc4ccc5c(c4)NC(=O)CO5)CC3)cc(F)cc2n1.Cl", "Inhibition", "%", 89),
    ("CNc1ccc(CNCc2ccc(-c3ccc(-c4nc5cc(F)ccc5[nH]4)cc3)cc2)cc1.O=C(O)C(F)(F)F", "Inhibition", "%", 100),
]

(Q) Which Inhibition reading was recorded for the compound `CC(C)CCN1CCCN(Cc2ccc(C(=O)NCc3ccc(Cl)cc3)cc2)CC1.O=C(O)C(F)(F)F` ?
(A) 84
